- Target Of Assay: gamma-secretase (Homo sapiens)
- Construct: partially purified extract of IMR-32 cell membranes as the gamma-secretase enzyme preparation; endogenous in cells; host or cells: IMR-32 cell membranes (partially purified extract)
- Run Description: Gamma-secretase APP enzyme assay
- Assay type: biochemical
- Experimental Conditions: cleavage of MBP-C125 Swe substrate at the Aβ40 site; partially purified extract of IMR-32 cell membranes; ELISA

{"columns": ["Compound", "IC50"],
 "data": [
  ["O=c1c2cn[nH]c2c2ccccc2n1S(=O)(=O)c1ccc(Cl)cc1", "101 to 500 nM"],
  ["O=S(=O)(c1ccc(Cl)cc1)N1Cc2c(O)n[nH]c2-c2ccccc21", "1000 to 10000 nM"],
  ["O=S(=O)(c1ccc(C(F)(F)F)cn1)N1c2cc(F)c(F)cc2-c2[nH]ncc2C1C1CC1 (stereo not shown)", "0.1 to 100 nM"],
  ["O=S(=O)(c1ccc(C(F)(F)F)cc1)N1c2cc(F)c(F)cc2-c2[nH]ncc2C1c1cccnc1 (stereo not shown)", "0.1 to 100 nM"],
  ["Cc1noc(C)c1S(=O)(=O)N1c2ccc(F)cc2-c2[nH]ncc2C1C (stereo not shown)", "501 to 1000 nM"],
  ["O=S(=O)(c1ccc(C(F)(F)F)nc1)N1c2cc(F)c(F)cc2-c2[nH]ncc2C1C1CC1 (stereo not shown)", "0.1 to 100 nM"],
  ["O=S(=O)(c1ccc(OC(F)F)cc1)N1c2cc(F)c(F)cc2-c2[nH]ncc2[C@H]1C1CC1", "0.1 to 100 nM"],
  ["CC1c2cn[nH]c2-c2cc(F)ccc2N1S(=O)(=O)c1cccnc1 (racemic)", "101 to 500 nM"],
  ["O=c1c2cnn(S(=O)(=O)c3ccc(Cl)cc3)c2c2ccccc2n1S(=O)(=O)c1ccc(Cl)cc1", "1000 to 10000 nM"],
  ["CC1c2c[nH]nc2-c2cccnc2N1S(=O)(=O)c1ccc(Cl)cc1 (stereo not shown)", "0.1 to 100 nM"],
  ["O=S(=O)(c1ccc(C(F)(F)F)cc1)N1c2cc(F)c(F)cc2-c2[nH]ncc2C1C1CC1 (racemic)", "0.1 to 100 nM"],
  ["O=S(=O)(c1ccc(OC(F)F)cc1)N1c2ccc(F)cc2-c2n[nH]cc2C1C1CC1 (stereo not shown)", "0.1 to 100 nM"],
  ["O=S(=O)(c1ccc(C(F)(F)F)cc1)N1Cc2c[nH]nc2-c2cc(F)c(F)cc21", "0.1 to 100 nM"]
]}
